Hello, the source for this data is the supplement of paper PMC8975748, in case you need it.

For each of the compounds below, state its z-score of subpopulation abundance.
# System: Saccharomyces cerevisiae BY4741 SeMeCo community
# run description: z-score of subpopulation abundance vs DMSO median, subpopulation auxotrophic for HL; higher = larger share of this subpopulation than in DMSO controls
# assay setup: 10 µM; 24 h; SM minimal medium; subpopulation (auxotrophy): HL
Give bare numbers.

compound | z-score of subpopulation abundance
CC(C)c1nc(N(C)S(C)(=O)=O)nc(-c2ccc(F)cc2)c1/C=C/[C@@H](O)C[C@@H](O)CC(=O)O [Rosuvastatin Calcium] | 0.38
Oc1cccc(O)c1 [Resorcinol] | -0.43
O=C(O)c1ccccc1C(=O)Nc1ccc(S(=O)(=O)Nc2nccs2)cc1 [Phthalylsulfathiazole] | -0.66
CO/N=C1\C[C@]2(C[C@@H]3C[C@@H](C/C=C(\C)C[C@@H](C)/C=C/C=C4\CO[C@@H]5[C@H](O)C(C)=C[C@@H](C(=O)O3)[C@]45O)O2)O[C@H](/C(C)=C/C(C)C)[C@H]1C [Moxidectin] | 1.14
CC(=O)OC1CC2(C)C(CC(O)C3C4(C)CCC(O)C(C)C4CCC32C)C1=C(CCC=C(C)C)C(=O)O (stereo not given) [Fusidine] | 2.33
N[C@H]1CONC1=O [L-Cycloserine] | 3.71

Could I get z-score of subpopulation abundance for every one of these entries?
1. COc1ccc(CNc2nc(N3CCC[C@H]3CO)ncc2C(=O)NCc2ncccn2)cc1Cl [Avanafil]
2. CCC[S+]([O-])c1ccc2[nH]c(NC(=O)OC)nc2c1 (stereo not given) [Albendazole Oxide]
3. CN(C)CC/C=C1/c2ccccc2Sc2ccc(Cl)cc21 [Chlorprothixene]
4. Nc1ccc(S(=O)(=O)Nc2ncccn2)cc1 [Sodium sulfadiazine]

1: -0.55; 2: -0.18; 3: -0.06; 4: 0.08

---

# Tested on: Saccharomyces cerevisiae BY4741 SeMeCo community
# run description: z-score of subpopulation abundance vs DMSO median, subpopulation auxotrophic for LUM; higher = larger share of this subpopulation than in DMSO controls
# assay setup: 10 µM; 24 h; SM minimal medium; subpopulation (auxotrophy): LUM
Counter-ions that a name gives are not always drawn.
recorded metric: z-score of subpopulation abundance
Numbers only.

Examples with their reported z-score of subpopulation abundance follow.
molecule | z-score of subpopulation abundance
Clc1ccc(COC(Cn2ccnc2)c2ccc(Cl)cc2Cl)cc1 (stereo not given) | 3.58
NC(=O)c1cnccn1 [Pyrazinamide] | -0.08
N#Cc1ccc2[nH]cc(CCCCN3CCN(c4ccc5oc(C(N)=O)cc5c4)CC3)c2c1 [Vilazodone HCl] | 0.66
Nc1nc(/C(=C/CC(=O)O)C(=O)N[C@@H]2C(=O)N3C(C(=O)O)=CCS[C@H]23)cs1 [Ceftibuten dihydrate] | 0.4

Consider the additional molecule presented here.
Identify measured z-score of subpopulation abundance corresponding to `CC(=O)OCC(COC(C)=O)OC(C)=O` 0.32

---

For each of the molecules below, state its z-score of subpopulation abundance.
# Test system: Saccharomyces cerevisiae BY4741 SeMeCo community
# run description: z-score of subpopulation abundance vs DMSO median, subpopulation auxotrophic for HLU; higher = larger share of this subpopulation than in DMSO controls
# assay setup: 10 µM; 24 h; SM minimal medium; subpopulation (auxotrophy): HLU
Structures can show the parent of a compound that is named as a salt.
Give bare numbers.

Examples with their reported z-score of subpopulation abundance follow.
molecule | z-score of subpopulation abundance
O=C1CN(/N=C/c2ccc([N+](=O)[O-])o2)C(=O)N1 | -0.69
N#Cc1ccc2[nH]cc(CCCCN3CCN(c4ccc5oc(C(N)=O)cc5c4)CC3)c2c1 [Vilazodone HCl] | -0.1
O=C(O)c1cn(-c2ccc(F)cc2)c2cc(N3CCNCC3)c(F)cc2c1=O [Sarafloxacin HCl] | -0.35
CC(=O)NC[C@H]1CN(c2ccc(N3CCOCC3)c(F)c2)C(=O)O1 | 0.07
CC[C@H](Nc1ncnc2[nH]cnc12)c1nc2cccc(F)c2c(=O)n1-c1ccccc1 | -0.35
C#CCN(C)Cc1ccccc1 [Pargyline hydrochloride] | 0.43
Nc1nc2ccc(OC(F)(F)F)cc2s1 | -0.57

Consider the additional molecule presented here.
Identify measured z-score of subpopulation abundance corresponding to CN[C@H]1CC[C@@H](c2ccc(Cl)c(Cl)c2)c2ccccc21 [Sertraline HCl] -0.32
